Cited source for all entries: patent US20250313631A1

Biological target: T1, recombinant human VISTA (His-tagged) (human, UniProt Q9H7M9 33-194)
T1 construct: bought soluble protein (Sino Biological); also called hVISTA; human VISTA polypeptide
Experiment: ELISA, plate coated with human VISTA; unit nM from the legend paragraph 699
pEC50: −log10 of the molar value.
MEASURED ENDPOINT: pEC50

anti-VISTA clone V4-C24 IgG1 (antibody, V domains shown) VH: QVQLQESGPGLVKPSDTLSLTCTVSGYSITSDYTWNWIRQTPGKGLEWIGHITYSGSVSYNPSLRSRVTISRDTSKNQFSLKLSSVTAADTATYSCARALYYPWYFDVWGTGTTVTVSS VL: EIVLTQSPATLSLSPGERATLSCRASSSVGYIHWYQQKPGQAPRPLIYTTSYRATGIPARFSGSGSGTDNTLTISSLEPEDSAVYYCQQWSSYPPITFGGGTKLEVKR
10.14
anti-VISTA clone V4-C27 IgG1 (antibody, V domains shown) VH: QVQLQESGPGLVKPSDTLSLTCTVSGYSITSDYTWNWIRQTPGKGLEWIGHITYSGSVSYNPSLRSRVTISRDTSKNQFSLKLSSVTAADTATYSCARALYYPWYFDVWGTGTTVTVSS VL: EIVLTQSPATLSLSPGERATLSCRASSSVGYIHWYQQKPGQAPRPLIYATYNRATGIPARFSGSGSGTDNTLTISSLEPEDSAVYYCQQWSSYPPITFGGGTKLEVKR
10.33
anti-VISTA clone V4-C9 IgG1 (antibody, V domains shown) VH: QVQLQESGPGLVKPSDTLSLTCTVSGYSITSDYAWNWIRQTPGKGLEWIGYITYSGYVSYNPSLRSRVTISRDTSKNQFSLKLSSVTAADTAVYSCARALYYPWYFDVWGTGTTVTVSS VL: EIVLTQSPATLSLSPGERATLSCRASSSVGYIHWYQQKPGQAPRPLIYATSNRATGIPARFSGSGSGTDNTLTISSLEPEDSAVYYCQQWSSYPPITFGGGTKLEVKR
9.97
anti-VISTA clone V4-C1 IgG1 (antibody, V domains shown) VH: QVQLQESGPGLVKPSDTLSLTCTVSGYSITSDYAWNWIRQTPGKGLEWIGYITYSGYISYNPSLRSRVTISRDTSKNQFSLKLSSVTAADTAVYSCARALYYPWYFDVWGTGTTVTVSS VL: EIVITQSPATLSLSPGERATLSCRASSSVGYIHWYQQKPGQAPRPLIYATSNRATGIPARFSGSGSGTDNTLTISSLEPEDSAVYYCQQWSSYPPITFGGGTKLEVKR
10.19
